For each of the compounds below, state its MC4R selectivity vs MC3R.
tested target: human MC3R (Homo sapiens, UniProt P41968)
Construct: expressed in transfected cells; host or cells: HEK-293 cells stably expressing the GScAMP22F split-luciferase cAMP sensor (parent reporter line from Promega); MC3R clone generated in-house, G418 selection
Sequence (P41968 whole entry): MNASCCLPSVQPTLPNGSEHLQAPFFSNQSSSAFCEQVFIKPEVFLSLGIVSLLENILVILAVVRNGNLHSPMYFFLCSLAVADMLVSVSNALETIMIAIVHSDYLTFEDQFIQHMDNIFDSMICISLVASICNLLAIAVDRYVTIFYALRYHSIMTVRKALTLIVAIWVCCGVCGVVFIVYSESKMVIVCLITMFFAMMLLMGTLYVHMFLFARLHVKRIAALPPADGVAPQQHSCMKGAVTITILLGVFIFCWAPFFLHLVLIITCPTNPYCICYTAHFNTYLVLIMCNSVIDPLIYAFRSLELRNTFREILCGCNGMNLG
procedure text: split-luciferase cAMP sensor assay, agonist mode (measurement window 1), hMC3R
Type: cell-based
stated conditions: MC4R versus MC3R
Positions of bridges follow the written chain, without caps; N, C: chain ends. Non-standard residues stand in square brackets, D forms with d. Residues, ends and D or L forms follow the SMILES beside them. 4Pal = N[C@@H](Cc1ccncc1)C(=O)O; Nle = CCCC[C@H](N)C(=O)O; Aib = CC(C)(N)C(=O)O
Give bare numbers.

Would you please look over these solved cases?
| compound | tested target | MC4R selectivity vs MC3R |
| --- | --- | --- |
| CCCC[C@H](NC(=O)[C@H](CCCNC(=N)N)NC(C)=O)C(=O)N[C@H]1CSSC[C@@H](C(N)=O)NC(=O)[C@H](Cc2c[nH]c3ccccc23)NC(=O)[C@H](CCCNC(=N)N)NC(=O)[C@@H](Cc2ccccc2)NC(=O)[C@H](Cc2ccncc2)NC1=O [CTX-1621] (Ac-R[Nle]C[4Pal][dF]RWC-NH2; disulfide 3-8 (inferred)) | human MC3R (Homo sapiens, UniProt P41968) | 13 |
| CC(=O)N[C@@H](CCCNC(=N)N)C(=O)N[C@H]1CSSC[C@@H](C(N)=O)NC(=O)[C@H](Cc2ccccc2)NC(=O)[C@H](CCCNC(=N)N)NC(=O)[C@@H](Cc2ccccc2)NC(=O)[C@H](CCCNC(=N)N)NC(=O)C(C)(C)NC1=O [CTX-1601, Arg-cyclo(Cys-Aib-Arg-D-Phe-Arg-Phe-Cys)] (Ac-RC[Aib]R[dF]RFC-NH2; disulfide 2-8) | human MC3R (Homo sapiens, UniProt P41968) | 2.3 |

Continue with the compound presented below.
Can you look up MC4R selectivity vs MC3R on human MC3R (Homo sapiens, UniProt P41968) for CCCC[C@H](NC(=O)[C@H](CCCNC(=N)N)NC(C)=O)C(=O)N[C@H]1CSSC[C@@H](C(N)=O)NC(=O)[C@H](Cc2c[nH]c3ccccc23)NC(=O)[C@H](CCCNC(=N)N)NC(=O)[C@@H](Cc2ccccc2)NC(=O)[C@H](CCCNC(=N)N)NC1=O [CTX-1228, Arg-Nle-cyclo(Cys-Arg-D-Phe-Arg-Trp-Cys)] (Ac-R[Nle]CR[dF]RWC-NH2; disulfide 3-8 (inferred)) ?
8.38
